Target: human IGF-I receptor on cells (NIH-3T3 fibroblasts expressing the human IGF-IR; DU145 cells) (human, UniProt P08069 31-1367)
Test: cell-based or functional assay
endpoint_label: Antagonist Assay IC50 (nM), IGF-I-induced IGF-1R tyrosine phosphorylation (ELISA)

What the record says about PINT-12A2 IgG (antibody, V domains shown) VH: EVQLVQSGAEVKKPGASVKVSCKASGYSFTNYGLNWVRQAPGQGLEWMGWISPYTGYTNYAQKFQGRVTMTTDKSTSTAYMDLRSLRSDDTAVYYCAREIFSHCTGGSCYPFDSWGQGTLVTVSS VL: LSSELTQDPAVSVALGQTVRITCQGDSLRNYYASWYQQKPGQAPLLVMFGKNNRPSEIPGRFSGSSSGNTASLTITGAQAEDEADYYCNSRDSNSHQWVFGGGTKLTVLG : Antagonist Assay IC50 (nM), IGF-I-induced IGF-1R tyrosine phosphorylation (ELISA) is > 40 nM

Measured Antagonist Assay IC50 (nM), IGF-I-induced IGF-1R tyrosine phosphorylation (ELISA), PINT-11A5 IgG (antibody, V domains shown) VH: QVQLVQSGAEVKKPGASVKVSCKASGYSFTNYGLNWVRQAPGQGLEWMGWISPYTGYTNYAQKFQGRVTMTTDKSTSTAYMDLRSLRSDDTAVYYCAREIFSHCTGGSCYPFDSWGKGTLVTVSS VL: LSSELTQDPAVSVALGQTVRITCQGDSLRSYYASWYQQKPGQAPVLVIYGKNNRPSGIPDRFSGSSSGNTASLTITGAQAEDEADYYCNSRDSSGNHHWVFGGGTKVTVLG : > 40 nM
